# Tested on: RSK1(Kin.Dom.1-N-terminal)
# Construct: gene RPS6KA1
# measurement setup: concentration: 1 μM, replicates: in singlicate; n = 1;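 note: KINOMEscan kinase panel screen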
metric name: %Inh (%)

[[record]]
molecule_smiles = "CC(=O)c1c(C)c2cnc(Nc3ccc(N4CCNCC4)cn3)nc2n(C2CCCC2)c1=O"
target_entity = "RSK1(Kin.Dom.1-N-terminal)"
metric_name = "%Inh"
unit_descriptor = "%"
result_value = 14

[[record]]
molecule_smiles = "CN1c2ccc(-c3ccc(C(N)=O)cc3)cc2-c2[nH]ncc2S1(=O)=O"
target_entity = "RSK1(Kin.Dom.1-N-terminal)"
metric_name = "%Inh"
unit_descriptor = "%"
result_value = 0

[[record]]
molecule_smiles = "Cc1ccc(-c2nc(Nc3ccncc3)c3ccccc3n2)s1"
target_entity = "RSK1(Kin.Dom.1-N-terminal)"
metric_name = "%Inh"
unit_descriptor = "%"
result_value = 0


---

# System: MAP3K1
# measurement setup: concentration: 1 μM, replicates: in singlicate; n = 1
metric name: %Inh

[[record]]
compound = "Cc1ccccc1Cn1ccn2c(=O)cc(N3CCOCC3)nc12"
metric_name = "%Inh"
result_value = "2%"

[[record]]
compound = "c1ccc(-c2ccnc3[nH]ccc23)cc1"
metric_name = "%Inh"
result_value = "19%"

[[record]]
compound = "O=C1NC(=O)C(c2ccc(Cl)cc2)=C1Nc1ccc(O)cc1"
metric_name = "%Inh"
result_value = "0%"

[[record]]
compound = "NS(=O)(=O)c1cccc(N/C=C2\\C(=O)Nc3ccc(S(=O)(=O)Cc4c(Cl)cccc4Cl)cc32)c1"
metric_name = "%Inh"
result_value = "15%"

[[record]]
compound = "Cn1cncc1-c1cc2c(Nc3ccc(OCc4ccccc4)cc3)ncnc2cn1"
metric_name = "%Inh"
result_value = "0%"

[[record]]
compound = "O=C(Nc1n[nH]c2cc(-c3ccsc3)ccc12)C1CC1"
metric_name = "%Inh"
result_value = "23%"

[[record]]
compound = "Cc1ccc(NC(=O)Nc2ccccc2F)cc1-c1ccc(C(=O)Nc2ccncc2)cc1"
metric_name = "%Inh"
result_value = "12%"

[[record]]
compound = "O=c1cc(N2CCOCC2)nc2n(Cc3cccc(Cl)c3Cl)c3ccccc3n12"
metric_name = "%Inh"
result_value = "7%"

[[record]]
compound = "O=C(Nc1n[nH]c2nc(-c3ccco3)c(Br)cc12)C1CCN(Cc2ccccc2)C1.O=C(O)[C@H](O)[C@@H](O)C(=O)O (stereo not shown)"
metric_name = "%Inh"
result_value = "18%"

[[record]]
compound = "COC(=O)c1cccc(NC(=O)NC2CCN(c3ccnc(Nc4ccc(OC)cc4)n3)C2)c1 (stereo not shown)"
metric_name = "%Inh"
result_value = "0%"

[[record]]
compound = "Cc1ccc(NC(=O)Nc2ccc(Cl)c(C(F)(F)F)c2)cc1-c1ccc(C(=O)Nc2ccncc2)cc1"
metric_name = "%Inh"
result_value = "3%"

[[record]]
compound = "COc1nccc(-c2c(-c3ccc(F)cc3)ncn2CCCN2CCOCC2)n1"
metric_name = "%Inh"
result_value = "0%"

[[record]]
compound = "CCn1c(-c2ccccc2)nc2cnccc21"
metric_name = "%Inh"
result_value = "14%"

[[record]]
compound = "O=C1NC(=O)C(c2ccc(Cl)cc2)=C1Nc1cccc(Cl)c1"
metric_name = "%Inh"
result_value = "0%"

[[record]]
compound = "CNc1nc(-c2ccc3c(N)n[nH]c3c2)cc(N2C[C@@H](C(=O)Nc3ccccc3)CC[C@H]2C)n1"
metric_name = "%Inh"
result_value = "0%"

[[record]]
compound = "CSc1ccc(-c2nc3n(c2-c2ccncc2)CCC3)cc1"
metric_name = "%Inh"
result_value = "0%"

[[record]]
compound = "CNCc1ccc2nc(NC(=O)c3ccc(C(C)(C)C)cc3)cn2c1"
metric_name = "%Inh"
result_value = "19%"

[[record]]
compound = "CC(=O)c1c(C)c2cnc(Nc3ccn(C)n3)nc2n(C2CCCC2)c1=O"
metric_name = "%Inh"
result_value = "0%"

[[record]]
compound = "CC(=O)c1cccc(NC(=O)NC2CCN(c3ccnc(Nc4ccc(F)cc4)n3)C2)c1 (stereo not shown)"
metric_name = "%Inh"
result_value = "3%"

[[record]]
compound = "Fc1ccc(-c2nc3n(c2-c2ccncc2)CCS3)cc1"
metric_name = "%Inh"
result_value = "13%"

[[record]]
compound = "COc1ccc(CSc2nnc(-c3ccc4ncsc4c3)o2)cc1C(F)(F)F"
metric_name = "%Inh"
result_value = "0%"

[[record]]
compound = "Cc1cnc(N)c(/C=C/c2cncc(C(=O)NCCc3ccc(Cl)cc3Cl)c2)c1.Cl"
metric_name = "%Inh"
result_value = "7%"

[[record]]
compound = "Fc1ccc(-c2nn3cccc(F)c3c2-c2ccncc2)cc1"
metric_name = "%Inh"
result_value = "9%"

[[record]]
compound = "CC(C)c1ccc(O)cc1Nc1ccnc2ccc(C(F)(F)F)cc12"
metric_name = "%Inh"
result_value = "0%"

[[record]]
compound = "Cn1cncc1C(=O)NC1CCN(c2ccnc(Nc3ccc(F)cc3)n2)C1 (stereo not shown)"
metric_name = "%Inh"
result_value = "2%"


---

# System: KIT-autoinhibited
# measurement setup: concentration: 1 μM, replicates: in singlicate; n = 1
metric name: %Inh (%)

[[record]]
compound = "Cc1cccc2c(-c3ccncn3)c(-c3ccc(F)cc3)nn12 [GW515532]"
metric_name = "%Inh"
result_value = 0

[[record]]
compound = "Cc1ccc(NC(=O)Nc2ccc(Cl)c(C(F)(F)F)c2)cc1-c1ccc(C(=O)Nc2ccncc2)cc1 [GSK1398470]"
metric_name = "%Inh"
result_value = 45

[[record]]
compound = "CNc1nc(-c2ccc3c(N)n[nH]c3c2)cc(N2C[C@@H](C(=O)NC3CCCCC3)OC[C@H]2C)n1 [GSK2375584]"
metric_name = "%Inh"
result_value = 7

[[record]]
compound = "COc1ccc(Nc2nccc(N3CCC(NC(=O)C(C)c4ccc(Cl)cc4)CC3)n2)cc1 (stereo not shown) [GSK1379812]"
metric_name = "%Inh"
result_value = 0

[[record]]
compound = "Fc1ccc(-c2nc3n(c2-c2ccncc2)CCS3)cc1 [GI98581]"
metric_name = "%Inh"
result_value = 0

[[record]]
compound = "CNc1cc(-c2ccc3c(N)n[nH]c3c2)nc(N)n1 [GSK2224810]"
metric_name = "%Inh"
result_value = 0

[[record]]
compound = "CS(=O)(=O)CCNCc1nc(-c2ccc3ncnc(Nc4ccc5c(cnn5Cc5ccccc5)c4)c3c2)cs1.Cl.Cl [GW569716]"
metric_name = "%Inh"
result_value = 0

[[record]]
compound = "COc1ccc(Nc2nccc(NCCNC(=O)Nc3cc(C)ccc3C)n2)cc1 [GSK1379899]"
metric_name = "%Inh"
result_value = 0

[[record]]
compound = "COc1ccc(CSc2nnc(-c3ccc4c(c3)CCO4)o2)cc1"
metric_name = "%Inh"
result_value = 0

[[record]]
compound = "Cc1ccc(NC(=O)Nc2ccc(Cl)cc2)cc1-c1ccc(C(=O)Nc2ccncc2)cc1 [GSK1398472]"
metric_name = "%Inh"
result_value = 4

[[record]]
compound = "CC(=O)c1c(C)c2cnc(Nc3ccc(N4CCNCC4)cn3)nc2n(C2CCCC2)c1=O"
metric_name = "%Inh"
result_value = 0

[[record]]
compound = "COC(=O)c1cccc(NC(=O)NC2CCN(c3ccnc(Nc4ccc(OC)cc4)n3)C2)c1 (stereo not shown) [GSK1379746]"
metric_name = "%Inh"
result_value = 0

[[record]]
compound = "Nc1ncnc2occ(-c3ccc4c(c3)CCN4C(=O)Cc3cc(F)ccc3F)c12 [GSK2645446]"
metric_name = "%Inh"
result_value = 0

[[record]]
compound = "CNc1nc(-c2ccc3c(N)n[nH]c3c2)cc(N2C[C@@H](C(=O)Nc3ccccc3)CC[C@H]2C)n1 [GSK2298859]"
metric_name = "%Inh"
result_value = 0

[[record]]
compound = "Cc1ccc(NC(=O)Nc2ccccc2)cc1-c1ccc(C(=O)Nc2ccncc2)cc1 [GSK1398471]"
metric_name = "%Inh"
result_value = 0

[[record]]
compound = "CC(=O)c1c(C)c2cnc(Nc3ccn(C)n3)nc2n(C2CCCC2)c1=O"
metric_name = "%Inh"
result_value = 0

[[record]]
compound = "CS(=O)(=O)Cc1ccc(Nc2nccc(-c3c(-c4cccc(NC(=O)C5CCCCC5)c4)nn4ncccc34)n2)cc1 [GSK350559]"
metric_name = "%Inh"
result_value = 14

[[record]]
compound = "COc1ccc(Nc2nccc(N3CCC(NC(=O)C(C)c4ccc(Cl)cc4)C3)n2)cc1 (stereo not shown) [GSK1379735]"
metric_name = "%Inh"
result_value = 5

[[record]]
compound = "COc1ccc(-c2coc3ccc(-c4nnc(C)o4)cc23)cc1"
metric_name = "%Inh"
result_value = 0

[[record]]
compound = "COc1cc2ncnc(Nc3cccc(Br)c3)c2cc1OC.Cl [GI230329]"
metric_name = "%Inh"
result_value = 0

[[record]]
compound = "FC(F)(F)c1ccccc1-c1cc(-c2c[nH]nc2-c2ccccn2)ccn1 [GW679396]"
metric_name = "%Inh"
result_value = 0

[[record]]
compound = "Cn1cncc1C(=O)NC1CCN(c2ccnc(Nc3ccc(F)cc3)n2)C1 (stereo not shown) [GSK1379717]"
metric_name = "%Inh"
result_value = 0

